FYI, the data here is from ChEMBL document CHEMBL4382198.

compounds and their reported EC1.5
- Target Or System: Survival motor neuron protein (Homo sapiens) (UniProt Q16637)
- Sequence (Q16637 whole entry): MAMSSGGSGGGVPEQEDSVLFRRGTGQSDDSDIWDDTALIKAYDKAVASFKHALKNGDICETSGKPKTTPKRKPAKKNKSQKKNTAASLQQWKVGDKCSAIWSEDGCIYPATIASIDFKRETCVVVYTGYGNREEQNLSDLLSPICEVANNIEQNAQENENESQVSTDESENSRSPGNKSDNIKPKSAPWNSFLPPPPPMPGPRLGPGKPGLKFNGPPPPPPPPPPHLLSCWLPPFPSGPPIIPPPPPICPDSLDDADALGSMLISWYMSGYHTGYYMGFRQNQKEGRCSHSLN
- Procedure Details: Activation of SMN protein in human SMA-derived fibroblasts after 48 hrs by HTRF assay
Observable: EC1.5 (nM)

Smiles Structure	Quantitative Result
Cc1cn2nc(-c3cc(=O)n4cc(N5CCN6CCC[C@H]6C5)ccc4n3)ccc2n1	20
CCc1nc(C)cn2nc(-c3cc(=O)n4cc(C5CCN(C)CC5)cc(C)c4n3)cc12	87
Cc1cn2nc(-c3cc(=O)n4cc(N5CCN6CCC[C@H]6C5)ccc4n3)cc(C)c2n1	22
CCc1nc(C)cn2nc(-c3cc(=O)n4cc(N5CCN6CCC[C@H]6C5)ccc4n3)cc12	163
Cc1cn2nc(-c3cc(=O)n4cc(N5CCNC6(CC6)C5)ccc4n3)cc(C)c2n1	29

###

List of pKa values.
- Procedure Details: physchem
Observable: pKa

Smiles Structure	Observable	Quantitative Result
Cc1cn2cc(-c3cc(=O)n4cc(N5CCN6CCC[C@@]6(C)C5)ccc4n3)cc(C(F)(F)F)c2n1	pKa	8.4
Cc1cn2cc(-c3cc(=O)n4cc(N5CCN6CCC[C@H]6C5)ccc4n3)cc(C)c2n1	pKa	8.6
Cc1cn2cc(-c3cc(=O)n4cc(N5CCN(C)CC5)ccc4n3)cc(F)c2n1	pKa	7.2
Cc1cn2cc(-c3cc(=O)n4cc(N5CCN6CCC[C@H]6C5)ccc4n3)cc(C(F)(F)F)c2n1	pKa	7.3
CCc1nc(C)cn2nc(-c3cc(=O)n4cc(C5CCN(C)CC5)cc(C)c4n3)cc12	pKa	10.9
Cc1nc2c(F)cc(-c3cc(=O)n4cc(N5CCN6CCC[C@H]6C5)ccc4n3)cc2o1	pKa	7.5
Cc1cn2nc(-c3cc(=O)n4cc(N5CCNC6(CC6)C5)ccc4n3)cc(C)c2n1	pKa	6.8
CCc1nc(C)cn2nc(-c3cc(=O)n4cc(N5CCN6CCC[C@]6(C)C5)ccc4n3)cc12	pKa	8.4
CCc1nc(C)cn2nc(-c3cc(=O)n4cc(C5CCN(CC)CC5)cc(C)c4n3)cc12	pKa	9.1

###

- Procedure Details: in vivo
- Study Conditions: rat
Vd reference

Smiles Structure	Vd, L/kg
CCc1nc(C)cn2nc(-c3cc(=O)n4cc(N5CCN6CCC[C@@H]6C5)ccc4n3)cc12	7
Cc1cn2cc(-c3cc(=O)n4cc(N5CCC(N6CCCC6)CC5)ccc4n3)cc(C(F)(F)F)c2n1	18
Cc1cn2cc(-c3cc(=O)n4cc(N5CCN6CCC[C@@]6(C)C5)ccc4n3)cc(C(F)(F)F)c2n1	9
Cc1cn2cc(-c3cc(=O)n4cc(N5CCN6CCC[C@H]6C5)ccc4n3)cc(C(F)(F)F)c2n1	7
CCc1nc(C)cn2nc(-c3cc(=O)n4cc(N5CCN6CCC[C@]6(C)C5)ccc4n3)cc12	15
CCc1nc(C)cn2nc(-c3cc(=O)n4cc(C5CCN(CC)CC5)cc(C)c4n3)cc12	20
CCc1nc(C)cn2cc(-c3cc(=O)n4cc(N5CCC(N6CCC6)CC5)cc(C)c4n3)cc12	20
Cc1cn2cc(-c3cc(=O)n4cc(N5CCN(C)CC5)ccc4n3)cc(F)c2n1	5
Cc1cn2cc(-c3cc(=O)n4cc(N5CCN6CCC[C@H]6C5)ccc4n3)cc(C)c2n1	15
Cc1nc2c(F)cc(-c3cc(=O)n4cc(N5CCN6CCC[C@H]6C5)ccc4n3)cc2o1	4
